Tested on: MDA-MB-231 breast
assay_explanation: NCI-60 one-dose screen, 48 h (100 = growth as untreated, 0 = no growth, -100 = all killed)
test_settings: 10 µM
This is part of a sample that, as a whole, favours compounds with a hit. Of some 83,000 tested, about 20% had one in any assay.
Label YES when growth is at or above 20%; otherwise label NO.

The examples below pair each entry with its known result.
{"compound": "COc1cc(OC)c(S(=O)(=O)N(CCCl)CCCl)cc1C(=O)/C=C/c1ccc(Cl)cc1", "assigned_category": "YES"}
{"compound": "COc1cc2c(O[C@@H]3OC[C@H](O)[C@H](O)[C@H]3O)c3c(c(-c4ccc5c(c4)OCO5)c2cc1OC)C(=O)OC3", "assigned_category": "YES"}
{"compound": "COc1cc2c(O[C@@H]3OC[C@H](OC(C)=O)[C@H](OC(C)=O)[C@H]3O)c3c(c(-c4ccc5c(c4)OCO5)c2cc1OC)C(=O)OC3", "assigned_category": "NO"}
{"compound": "CN1C(=O)[C@]23SSC1(C)C(=O)N2[C@H]1Nc2ccccc2C1([C@@]12c4ccccc4N[C@@H]1N1C(=O)C4(C)SS[C@]1(C(=O)N4C)[C@H]2O)[C@@H]3O (stereo partly specified)", "assigned_category": "NO"}
{"compound": "C=C1[C@@H](C)C2[C@H](Cc3ccccc3)NC(=O)[C@]23[C@H](OC(C)=O)/C=C/[C@@](C)(O)C(=O)[C@@H](C)C/C=C/[C@H]3[C@@H]1O (stereo partly specified)", "assigned_category": "YES"}
{"compound": "CC1=C2C(=O)[C@](C)(CO)C=C2C(=O)[C@](C)(O)C12CC2", "assigned_category": "YES"}

Problem: Would you say N#Cc1c(-n2c(Br)c(Br)c3cc(Br)ccc32)[nH]c2c(Br)cc(Br)cc12 shows growth at minimum 20%?
Solution: NO

Problem: Would you say C[C@@H]1C[C@H]2C(=O)O[C@@H](C)C(NC(=O)[C@H](Cc3cc(F)cc(F)c3)NC(=O)Nc3ccc(OS(=O)(=O)F)cc3)C(=O)N3CCC[C@H]3C(=O)N3CCO[C@H](C)[C@H]3C(=O)N[C@@H](CO)C(=O)N2C1 (stereo partly specified) shows growth at minimum 20%?
Solution: YES

Problem: Would you say CC(C)(O)/C=C/C(=O)[C@](C)(O)[C@H]1[C@H](O)C[C@@]2(C)[C@H]3CC=C4[C@@H](C[C@H](O)C(=O)C4(C)C)[C@]3(C)C(=O)C[C@]12C shows growth at minimum 20%?
Solution: NO

Problem: Would you say CC(=O)O[C@@H]1[C@@H]2O[C@H]2[C@@](C)(O)C(=O)[C@@H](C)C/C=C/[C@H]2[C@@H]3O[C@]3(C)[C@@H](C)C3[C@H](Cc4ccccc4)NC(=O)[C@@]312 (stereo partly specified) shows growth at minimum 20%?
Solution: YES

Problem: Would you say CC1=C(CCC=NNC(N)=O)C2=C(C)C3(CC3)[C@@](C)(O)C(=O)C2=C1 shows growth at minimum 20%?
Solution: NO
